- System: 743489-274-T-PDC complex spheroid viability
- experiment notes: Anticancer human tumor 743489-274-T-PDC patient-derived renal cell carcinoma cell line growth inhibition
- condition context: second compound 0.316 µM; first compound 1 µM; stronger effect = lower value
endpoint: viability, T/C

Take a look at these entries with their results.
Nc1ncn(C2CC(O)C(CO)O2)c(=O)n1 (configuration not stated) + NC1CCC(NC2CC2c2ccccc2)CC1; 98.4%
COc1cc(Nc2ncc3c(n2)-c2ccc(Cl)cc2C(c2c(F)cccc2OC)=NC3)ccc1C(=O)O + NC1CCC(NC2CC2c2ccccc2)CC1; 85%
O=C(c1cc(Cc2n[nH]c(=O)c3ccccc23)ccc1F)N1CCN(C(=O)C2CC2)CC1 + NC1CC1c1ccc(-c2cccc(O)c2)cc1; 97.4%
CC(C)c1c(-c2ccccc2)nc2c(C#N)c[nH]n2c1=O + NC1CCC(NC2CC2c2ccccc2)CC1; 108%
O=C(C=Cn1cnc(-c2cc(C(F)(F)F)cc(C(F)(F)F)c2)n1)NNc1cnccn1 + NC1CCC(NC2CC2c2ccccc2)CC1; 81.3%

Requested read-out: viability, T/C. Entry: O=C(C=Cn1cnc(-c2cc(C(F)(F)F)cc(C(F)(F)F)c2)n1)NNc1cnccn1 + NC1CC1c1ccc(-c2cccc(O)c2)cc1
74.6%

Need viability, T/C of CC1COCCN1c1cc(-c2ccnn2C)c2ccnc(-c3ccn[nH]3)c2n1 (configuration not stated) + NC1CC1c1ccc(-c2cccc(O)c2)cc1 , thanks.
51.9%

###

- System: 743489-274-T-PDC complex spheroid viability
- experiment notes: Anticancer human tumor 743489-274-T-PDC cell line growth inhibition;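 further: spheroids exposed to compounds for 7 days before readout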;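 on viability, T/C: 100% = DMSO vehicle control wells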
- condition context: second compound 3.16 µM; first compound 1 µM; stronger effect = lower value
endpoint: viability, T/C

COc1ccc([C@@H](O)c2cc(-c3ncnc4cc(N5CCOCC5)ccc34)c(F)cc2Cl)nn1 + NC1CCC(NC2CC2c2ccccc2)CC1; 62.2%

Item COc1cc(Nc2ncc3c(n2)-c2ccc(Cl)cc2C(c2c(F)cccc2OC)=NC3)ccc1C(=O)O + NC1CCC(NC2CC2c2ccccc2)CC1 has what recorded viability, T/C?
97.2%

Quick one: viability, T/C for CC1COCCN1c1cc(-c2ccnn2C)c2ccnc(-c3ccn[nH]3)c2n1 (configuration not stated) + NC1CCC(NC2CC2c2ccccc2)CC1 ?
76.1%

Which viability, T/C is reported for this compound? CC1(C)CCC(CN2CCN(c3ccc(C(=O)NS(=O)(=O)c4ccc(NCC5CCOCC5)c([N+](=O)[O-])c4)c(Oc4cnc5[nH]ccc5c4)c3)CC2)=C(c2ccc(Cl)cc2)C1 + NC1CCC(NC2CC2c2ccccc2)CC1
114%

What value of viability, T/C has been reported for the following compound? O=C(C=Cn1cnc(-c2cc(C(F)(F)F)cc(C(F)(F)F)c2)n1)NNc1cnccn1 + NC1CCC(NC2CC2c2ccccc2)CC1
82.5%

Sample COc1ccc([C@@H](O)c2cc(-c3ncnc4cc(N5CCOCC5)ccc34)c(F)cc2Cl)nn1 + NC1CC1c1ccc(-c2cccc(O)c2)cc1 — what was its viability, T/C?
41.2%

GET /values?readout=viability, T/C&item= O=C(C=Cn1cnc(-c2cc(C(F)(F)F)cc(C(F)(F)F)c2)n1)NNc1cnccn1 + NC1CC1c1ccc(-c2cccc(O)c2)cc1
69.5%

###

Reported viability, T/C by item:
- Tested on: 743489-274-T-PDC complex spheroid viability
- experiment notes: Anticancer human tumor 743489-274-T-PDC cell line growth inhibition;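 further: spheroids exposed to compounds for 7 days before readout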;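 on viability, T/C: 100% = DMSO vehicle control wells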
- condition context: second compound 1 µM; first compound 0.316 µM; stronger effect = lower value
Only the number, expressed in %, is required.

For orientation, consider the following solved cases.
CC1COCCN1c1cc(C2(S(C)(=N)=O)CC2)nc(-c2ccnc3[nH]ccc23)n1 (stereo not drawn) + NC1CCC(NC2CC2c2ccccc2)CC1; 115
COc1ccc([C@@H](O)c2cc(-c3ncnc4cc(N5CCOCC5)ccc34)c(F)cc2Cl)nn1 + NC1CC1c1ccc(-c2cccc(O)c2)cc1; 80.2
O=C(C=Cn1cnc(-c2cc(C(F)(F)F)cc(C(F)(F)F)c2)n1)NNc1cnccn1 + NC1CC1c1ccc(-c2cccc(O)c2)cc1; 89.4
CC1(C)CCC(CN2CCN(c3ccc(C(=O)NS(=O)(=O)c4ccc(NCC5CCOCC5)c([N+](=O)[O-])c4)c(Oc4cnc5[nH]ccc5c4)c3)CC2)=C(c2ccc(Cl)cc2)C1 + NC1CCC(NC2CC2c2ccccc2)CC1; 119
CC1(C)CCC(CN2CCN(c3ccc(C(=O)NS(=O)(=O)c4ccc(NCC5CCOCC5)c([N+](=O)[O-])c4)c(Oc4cnc5[nH]ccc5c4)c3)CC2)=C(c2ccc(Cl)cc2)C1 + NC1CC1c1ccc(-c2cccc(O)c2)cc1; 117
CC(C)c1c(-c2ccccc2)nc2c(C#N)c[nH]n2c1=O + NC1CC1c1ccc(-c2cccc(O)c2)cc1; 108

Continue with the next compound.
Returns the measured viability, T/C for the input compound. Input: CC1COCCN1c1cc(C2(S(C)(=N)=O)CC2)nc(-c2ccnc3[nH]ccc23)n1 (stereo not drawn) + NC1CC1c1ccc(-c2cccc(O)c2)cc1
104

###

- Test system: 743489-274-T-PDC complex spheroid viability
- experiment notes: Anticancer human tumor 743489-274-T-PDC cell line growth inhibition;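 further: spheroids exposed to compounds for 7 days before readout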;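 on viability, T/C: 100% = DMSO vehicle control wells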
- condition context: second compound 0.1 µM; first compound 0.01 µM; stronger effect = lower value
- Source text: Multicellular complex tumor spheroid response to LSD1 Inhibitor Iadademstat in combination with a variety of drugs and investigational agents in selected tumor cell lines The current study was undertaken to assess response to LSD1 inhibitors in combination with standard-of-care drugs and investigational agents in solid tumor complex spheroid models as well as in the K-562 leukemia. […] Compounds. […] If the clinical Cmax for an agent had not been determined, the highest concentration tested was 10 microM. […]
endpoint: viability, T/C (%)
Report as a plain number; the unit % is understood.

CC1COCCN1c1cc(-c2ccnn2C)c2ccnc(-c3ccn[nH]3)c2n1 (stereo not drawn) + NC1CC1c1ccc(-c2cccc(O)c2)cc1; 88

# input compound: COc1cc(Nc2ncc3c(n2)-c2ccc(Cl)cc2C(c2c(F)cccc2OC)=NC3)ccc1C(=O)O + NC1CC1c1ccc(-c2cccc(O)c2)cc1 ; wanted: its viability, T/C
105

Name the reported viability, T/C value associated with the compound Nc1ncn(C2CC(O)C(CO)O2)c(=O)n1 (stereo not drawn) + NC1CCC(NC2CC2c2ccccc2)CC1
113

Any idea what viability, T/C was measured for CC1COCCN1c1cc(-c2ccnn2C)c2ccnc(-c3ccn[nH]3)c2n1 (stereo not drawn) + NC1CCC(NC2CC2c2ccccc2)CC1 ?
109

Can you share its viability, T/C? I mean this compound: CC(C)CC(NC(=O)C(Cc1ccccc1)NC(=O)c1cnccn1)B(O)O (stereo not drawn) + NC1CCC(NC2CC2c2ccccc2)CC1
33.7

# query: viability, T/C of entry CC(C)CC(NC(=O)C(Cc1ccccc1)NC(=O)c1cnccn1)B(O)O (stereo not drawn) + NC1CC1c1ccc(-c2cccc(O)c2)cc1
33.9

Give its viability, T/C value. Item: Nc1ncn(C2CC(O)C(CO)O2)c(=O)n1 (stereo not drawn) + NC1CC1c1ccc(-c2cccc(O)c2)cc1
101

Item CC[C@@]1(O)C(=O)OCc2c1cc1n(c2=O)Cc2cc3c(CN(C)C)c(O)ccc3nc2-1 + NC1CC1c1ccc(-c2cccc(O)c2)cc1 has what recorded viability, T/C?
97.8

###

IC50 reference
- System: 743489-274-T-PDC complex spheroid viability
- experiment notes: Anticancer human tumor 743489-274-T-PDC cell line growth inhibition;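 further: spheroids exposed to compounds for 7 days before readout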
- condition context: curve of first compound; second compound 3.16 µM

Entry O=C(C=Cc1cccc(S(=O)(=O)Nc2ccccc2)c1)NO + NC1CCC(NC2CC2c2ccccc2)CC1 : reported IC50 = ?
> 3000 nM

State the recorded IC50 for this entry: CCc1c2c(nc3ccc(O)cc13)-c1cc3c(c(=O)n1C2)COC(=O)[C@]3(O)CC + NC1CCC(NC2CC2c2ccccc2)CC1
22.1 nM

What IC50 value was documented for this compound, CC[C@@]1(O)C(=O)OCc2c1cc1n(c2=O)Cc2cc3c(CN(C)C)c(O)ccc3nc2-1 + NC1CC1c1ccc(-c2cccc(O)c2)cc1 ?
58.7 nM

// query IC50 value for entry CC(C)CC(NC(=O)CNC(=O)c1cc(Cl)ccc1Cl)B1OC(=O)CC(CC(=O)O)(C(=O)O)O1 (centres undefined) + NC1CC1c1ccc(-c2cccc(O)c2)cc1
> 100 nM

# query: IC50 of entry O=C(C=Cn1cnc(-c2cc(C(F)(F)F)cc(C(F)(F)F)c2)n1)NNc1cnccn1 + NC1CCC(NC2CC2c2ccccc2)CC1
> 1000 nM

# query: IC50 of entry COc1ccc([C@@H](O)c2cc(-c3ncnc4cc(N5CCOCC5)ccc34)c(F)cc2Cl)nn1 + NC1CCC(NC2CC2c2ccccc2)CC1
1850 nM
